Reported activity, negative = inhibition values for a set of compounds
- studyTarget: Cytochrome P450 2C19 (Homo sapiens) (UniProt P33261)
- Sequence (P33261 whole entry, looked up): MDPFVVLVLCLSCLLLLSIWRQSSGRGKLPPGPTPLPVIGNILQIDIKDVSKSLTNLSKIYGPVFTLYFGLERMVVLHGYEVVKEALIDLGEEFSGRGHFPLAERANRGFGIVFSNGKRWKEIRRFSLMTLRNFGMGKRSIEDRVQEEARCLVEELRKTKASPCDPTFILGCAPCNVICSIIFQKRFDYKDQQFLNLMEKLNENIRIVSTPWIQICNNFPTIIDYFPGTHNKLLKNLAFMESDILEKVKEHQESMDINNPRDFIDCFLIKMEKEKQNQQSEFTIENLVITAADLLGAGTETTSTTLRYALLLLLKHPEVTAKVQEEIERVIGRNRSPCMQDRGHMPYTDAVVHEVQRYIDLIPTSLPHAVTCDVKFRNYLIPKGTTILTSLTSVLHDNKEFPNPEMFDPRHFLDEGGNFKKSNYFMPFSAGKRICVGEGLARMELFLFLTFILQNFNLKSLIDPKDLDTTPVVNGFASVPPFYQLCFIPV
- assayRemarks: Cytochrome panel assay with activity outcomes; as to activity, negative = inhibition: % is scaled to controls: 0 for no effect and ±100 for the full control effect
- conditions: recombinant CYP, pro-luciferin dealkylation, luminescence, p450-cyp2c19; series mostly up to 57.1 µM
Hit rate of the full screen: of about 16,000 compounds, about 5,800 (36%) were called active. Another 23% or so got no clear call; they are omitted. Some of the results follow.

Example entries and their recorded answers appear below.
- C[C@@]12CC[C@@H]3[C@H](CCC4=CC(=O)CC[C@]43C)[C@@H]1CC[C@@H]2C(=O)COS(=O)(=O)c1ccc(Br)cc1: -21.8% [at 11.4 µM] (inactive)
- CC(=O)O/C(=C1/C[C@H]2[C@@H]3CC=C4C[C@@H](OC(C)=O)CC[C@]4(C)[C@@H]3CC[C@]2(C)C1=O)C(F)(F)F: 10.6% [at 11.4 µM] (inactive)
- N[C@H](Cc1c[nH]c2ccccc12)P(=O)(O)O: 13.8% [at 11.4 µM] (inactive)

Query: Could you share which activity, negative = inhibition value was measured for Cc1cc(Cc2cc(C)c(N)cc2N)c(N)cc1N ?
Response: -42.7% [at 11.4 µM] (inactive)

Query: Cool, now O=[N+]([O-])c1cc(-c2ccc([As](=O)(O)O)cc2)ccc1[As](=O)(O)O
Response: 22.9% [at 11.4 µM] (inactive)

---

- studyTarget: Cytochrome P450 2C19 (Homo sapiens)
- assayRemarks: Cytochrome panel assay with activity outcomes
- conditions: recombinant CYP, pro-luciferin dealkylation, luminescence, p450-cyp2c19; series mostly up to 57.1 µM
Among all 16,000 compounds or so, about 5,800 (36%) were called active. Inconclusive results (about 23%) are left out. The call rests on the fitted dose curve; in most records, active means well fitted curve in the direction sought with a large enough effect; inconclusive means small, poorly fitted or top-dose-only effect, or effect the other way; inactive means no such curve, though single readings can be large or run the other way. This is one part of the list.
Write down the outcome that applies. Available outcomes: T for active, F for inactive

Worked examples follow.
- CC(Oc1ccc(-c2ccccc2)cc1)C(=O)O (stereo unspecified): T
- CCNC(=O)[C@@H]1O[C@@H](n2cnc3c(N)ncnc32)[C@H](O)[C@H]1O: F
- CN1CCC(c2c[nH]c3ccc(O)cc23)CC1: F
- Cc1ccc(CCN2CC(C(=O)N3CCC4(CC3)OCCO4)CC2=O)cc1 (stereo unspecified): F

Query: Write down the call the test reported for this molecule. Item: COc1ccc2c(c1)[C@]13CCCC[C@@H]1[C@H](C2)N(C)CC3
Response: F

Query: Cool, now CCCCC/C=C\C/C=C\C/C=C\C/C=C\CCCC(=O)NCC(=O)O
Response: F

---

- studyTarget: Cytochrome P450 2C19 (Homo sapiens)
- assayRemarks: Cytochrome panel assay with activity outcomes
- conditions: recombinant CYP, pro-luciferin dealkylation, luminescence, p450-cyp2c19; series mostly up to 57.1 µM
Among all 16,000 compounds or so, about 5,800 (36%) were called active. Roughly 23% stayed inconclusive and do not appear here. This is one part of the list.
observable: AC50

Example entries and their recorded answers appear below.
* CCOC(=O)c1c(NC(=O)C(c2ccccc2)c2ccccc2)sc2c1C1CCN2CC1 | 3.55 µM (active)
* C[C@@H]1O[C@H](O[C@@H]2CC[C@@]3(C=O)[C@H]4CC[C@@]5(C)[C@@H](C6=CC(=O)OC6)CC[C@@]5(O)[C@@H]4CC[C@]3(O)C2)C[C@H](O)[C@@H]1O | inactive
* Oc1ccc2c3c1O[C@@H]1c4[nH]c5c(c4C[C@@]4(O)[C@@H](C2)N(CC2CC2)CC[C@]314)C[C@]1(O)[C@@H]2Cc3ccc(O)c4c3[C@@]1(CCN2CC1CC1)[C@H]5O4 | inactive
* Cc1cc(OCc2ccc([N+](=O)[O-])cc2)c2c3c(c(=O)oc2c1)CCCC3 | 0.708 µM (active)
* Oc1ccc2c3c1O[C@H]1c4[nH]c5c(c4C[C@@]4(O)[C@@H](C2)N(CC2CC2)CC[C@]314)C[C@]1(O)[C@H]2Cc3ccc(O)c4c3[C@@]1(CCN2CC1CC1)[C@@H]5O4 | inactive

Continue with the next compound.
Query: Requested read-out AC50, target or system Cytochrome P450 2C19 (Homo sapiens), entry CCCN1CCO[C@@H]2c3cc(O)ccc3OC[C@@H]21
Response: 10 µM (active)

---

- studyTarget: Cytochrome P450 2C19 (Homo sapiens) (UniProt P33261)
- assayRemarks: Cytochrome panel assay with activity outcomes
- conditions: recombinant CYP, pro-luciferin dealkylation, luminescence, p450-cyp2c19; series mostly up to 57.1 µM
About 5,800 (36%) of roughly 16,000 compounds were called active. Roughly 23% stayed inconclusive and do not appear here. Some of the results follow.
observable: AC50

Example entries and their recorded answers appear below.
* CCN1C[C@@]2(COC)[C@H]3[C@@H](OC)[C@H]4C1[C@@]3([C@H](OC)C[C@@H]2O)[C@H]1C[C@@]2(O)[C@@H](OC(=O)c3ccccc3)[C@@H]1[C@@]4(OC(C)=O)[C@H](O)[C@@H]2OC | inactive
* C[C@@]12CC[C@H]3[C@@H](CCC4=CC(=O)CC[C@]43C)[C@H]1CC[C@H]2C(=O)CO | inactive
* CCNC(=O)O/N=C(\C)c1sc(-c2ccccc2)nc1C | 11.2 µM (active)
* C/C(=N\OC(=O)NC(C)C)c1sc(-c2ccc(Cl)cc2)nc1C | 5.01 µM (active)

Query: Requested read-out AC50, target or system Cytochrome P450 2C19 (Homo sapiens) (UniProt P33261), entry CC(C)CN1CC2(CCN(C(=O)Oc3ccccc3)CC2)C1
Response: inactive

Query: Cool, now COc1ccccc1CN1CCCC2(CCN(C(=O)Oc3ccccc3)CC2)C1
Response: inactive

Query: Cool, now NCCc1ccc(S(=O)(=O)F)cc1
Response: inactive

Query: Cool, now CC(=O)O[C@@H]1CN2CCC1CC2
Response: inactive

Query: Cool, now CCN(CC)C(=O)N[C@@H]1C[C@H]2c3cccc4[nH]cc(c34)C[C@@H]2N(C)C1
Response: inactive

Query: Cool, now NC(=NCCc1ccc(I)cc1)SCCCc1cnc[nH]1
Response: inactive

---

- studyTarget: Cytochrome P450 2C19 (Homo sapiens) (UniProt P33261)
- assayRemarks: Cytochrome panel assay with activity outcomes
- conditions: recombinant CYP, pro-luciferin dealkylation, luminescence, p450-cyp2c19; series mostly up to 57.1 µM
Screen size: about 16,000 compounds; about 5,800 (36%) were called active. Inconclusive results (about 23%) are left out. Calls follow the shape of the dose curve; as a rule, active = well fitted curve in the direction sought with a large enough effect; inconclusive = small, poorly fitted or top-dose-only effect, or effect the other way; inactive = no such curve, though single readings can be large or run the other way. This is one part of the list.
Write down the outcome that applies. Available outcomes: Yes = active, No = inactive

Worked examples follow.
* c1ccc(N2CC3(CCNCC3)C2)cc1 | No
* C[C@@]12CC[C@@H]3c4ccc(O)cc4CC[C@H]3[C@H]1CC[C@H]2O | No
* O=c1c2ccccc2c2ccccc2c(=O)n1-c1cc2c3ccccc3ccc2c2ccccc12 | Yes
* CC[C@H]1CN2CC[C@@H]1C[C@H]2[C@@H](O)c1ccnc2ccc(OC)cc12 | No
* COc1ccc2[nH]cc(C3=CCNCC3)c2c1 | No

Query: Write down the call the test reported for this compound. Item: CN(C)C(=O)Oc1cccc([N+](C)(C)C)c1
Response: No

Query: Cool, now O=c1ccc2[nH]cc(C3=CCNCC3)c2[nH]1
Response: Yes

Query: Cool, now COCCCn1c(N)c(C(=O)Nc2sc3c(c2C(=O)OC)CCCC3)c2nc3ccccc3nc21
Response: Yes

Query: Cool, now CCN1CCN(Cc2cc(OC)c(OC)cc2[N+](=O)[O-])CC1
Response: No

Query: Cool, now Cc1nc(N)sc1CCN
Response: No

Query: Cool, now CC(=NCc1ccco1)c1c(O)n(-c2ccccc2)c(=O)[nH]c1=O
Response: Yes

---

- studyTarget: Cytochrome P450 2C19 (Homo sapiens) (UniProt P33261)
- assayRemarks: Cytochrome panel assay with activity outcomes
- conditions: recombinant CYP, pro-luciferin dealkylation, luminescence, p450-cyp2c19; series mostly up to 57.1 µM
- Description: The P450 gene superfamily is involved in the metabolism and clearance of xenobiotics. This assay used various human CYP P450 isozymes to measure the dealkylation of various pro-luciferin substrates to luciferin. The luciferin is then measured by luminescence after the addition of a luciferase detection reagent. […] Inhibitors and some substrates limit the production of luciferin, and decrease measured luminescence. […] 8, Detection, 1 sec, ViewLux luminescent read […]
The whole screen tested about 16,000 compounds, of which about 5,800 (36%) were called active. Not shown: some 23% with an inconclusive outcome. The call rests on the fitted dose curve; in most records, active means well fitted curve in the direction sought with a large enough effect; inconclusive means small, poorly fitted or top-dose-only effect, or effect the other way; inactive means no such curve, though single readings can be large or run the other way. The list shows a part of the results.
Write down the outcome that applies. Available outcomes: t for active, f for inactive

* CC[C@]1([C@H]2O[C@@H]([C@@H]3O[C@](O)(CO)[C@@H](C)C[C@H]3C)C[C@H]2C)CC[C@@H]([C@]2(C)CC[C@@]3(C[C@@H](O)[C@@H](C)[C@@H]([C@H](C)[C@H](OC)[C@H](C)C(=O)O)O3)O2)O1 | f
* NC(N)=Nc1ccc2[nH]c3c(c2c1)C[C@]1(O)[C@@H]2Cc4ccc(O)c5c4[C@]1(CCN2CC1CC1)[C@H]3O5 | f
* O=S(=O)(c1ccccc1)N1CCCCC1c1cccnc1 (centres undefined) | t

Lab note: next compound to report on.
Query: Write down the call the test reported for this compound. Item: Cc1ccccc1OCCN=Cc1c(O)n(C)c(=O)n(C)c1=O
Response: t

The origin of these recorded values is PubChem BioAssay AID1851.
